All values here come from patent US4109000A.

ASSAY EXPLANATION: acute toxicity (LD50), intraperitoneal, ddY male mice
CONDITION LABEL: mouse, in vivo, ip, ddY male mice (6 weeks age), observation for one week (second table); read-out: LD50 (i.p.)
Quick reference for LD50 at 168 h among some molecules
Enter your answer as a number in mg/kg; do not include the unit.

Look over these answered cases.
MOLECULE	ATTRIBUTE MEASURED	READOUT VALUE
COC(=O)c1ccc(Cc2ccc(O)cc2)cn1 [Methyl 5-(4-hydroxybenzyl)-picolinate, methyl 5-(4-hydroxybenzyl)-picolinate]	LD50 at 168 h	1000
CCOC(=O)c1ccc(Cc2ccc(O)cc2)cn1 [Ethyl 5-(4-hydroxybenzyl)-picolinate, ethyl 5-(4-hydroxybenzyl)picolinate]	LD50 at 168 h	594
O=C(O)c1ccc(Cc2ccc(O)cc2)cn1 [5-(4-Hydroxybenzyl)-picolinic Acid, 5-(4-hydroxybenzyl)picolinic acid]	LD50 at 168 h	193
O=C(O)c1ccc(Cc2ccc(O)c(O)c2)cn1 [5-(3,4-Dihydroxybenzyl)-picolinic Acid, 5-(3,4-dihydroxybenzyl)picolinic acid]	LD50 at 168 h	561

Consider now this further molecule.
Which measured LD50 at 168 h value corresponds to O=C(O)c1ccc(Cc2ccccc2O)cn1 [5-(2-Hydroxybenzyl)-picolinic Acid] ?
354

====

Test system: spontaneously hypertensive rats
ASSAY EXPLANATION: percent decrease in blood pressure in spontaneously hypertensive rats, oral
Format: in vivo, spontaneously hypertensive rats (male)
CONDITION LABEL: Rattus norvegicus, po; 50 mg/kg orally, spontaneously hypertensive rats (male 20-40 weeks), after 5 hrs; read-out: % Decrease in blood pressure, 5hrs.
ATTRIBUTE MEASURED: inhibition in vivo at 50 mg/kg (%)
Lab book: enter the figure in %, no units written.

Some compounds with recorded inhibition in vivo at 50 mg/kg:
COMPOUND	UNIT ABBREVIATION	inhibition in vivo at 50 mg/kg
O=C(O)c1ccc(Cc2ccccc2)cn1	%	29.5
O=C(O)c1ccc(Cc2ccc(Cl)cc2)cn1	%	50.3
COC(=O)c1ccc(Cc2ccccc2)cn1 [Methyl 5-benzylpicolinate]	%	48.8
CCOC(=O)c1ccc(Cc2ccccc2)cn1.Cl [Ethyl 5-benzylpicolinate (Hydrochloride), ethyl 5-benzylpicolinate hydrochloride]	%	32.4
COc1ccc(Cc2ccc(C(=O)O)nc2)cc1	%	21.9

Fill in the blank: the reported inhibition in vivo at 50 mg/kg of O=C(NCc1ccccc1)c1ccc(Cc2ccccc2)cn1 [5-Benzylpicolinic acid N-benzylamide] is ____.
27.1

Quick check: inhibition in vivo at 50 mg/kg of COc1ccccc1Cc1ccc(C(=O)O)nc1 ?
25.5

Any idea what inhibition in vivo at 50 mg/kg was measured for O=C(O)c1ccc(Cc2ccc([N+](=O)[O-])cc2)cn1 ?
39.8

====

ASSAYED SYSTEM: UniProtKB P15101
Sequence (P15101 1-610): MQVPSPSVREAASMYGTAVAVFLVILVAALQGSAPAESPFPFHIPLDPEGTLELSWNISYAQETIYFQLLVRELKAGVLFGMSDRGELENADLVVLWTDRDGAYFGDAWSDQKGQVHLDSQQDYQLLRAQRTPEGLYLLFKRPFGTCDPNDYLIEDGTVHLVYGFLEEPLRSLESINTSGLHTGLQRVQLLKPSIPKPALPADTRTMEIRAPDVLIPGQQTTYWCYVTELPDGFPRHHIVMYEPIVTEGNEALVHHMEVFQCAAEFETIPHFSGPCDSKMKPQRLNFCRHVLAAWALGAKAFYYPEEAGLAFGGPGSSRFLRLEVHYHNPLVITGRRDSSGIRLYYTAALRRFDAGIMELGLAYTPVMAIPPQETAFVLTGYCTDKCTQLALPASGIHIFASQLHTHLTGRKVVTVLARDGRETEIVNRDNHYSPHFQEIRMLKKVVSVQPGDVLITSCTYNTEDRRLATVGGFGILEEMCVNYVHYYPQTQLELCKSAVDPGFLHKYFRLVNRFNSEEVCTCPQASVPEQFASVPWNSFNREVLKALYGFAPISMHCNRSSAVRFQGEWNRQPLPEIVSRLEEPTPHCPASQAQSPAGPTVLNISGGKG
pIC50: −log10 of the molar value.
Label N if pIC50 falls below 7; label Y in every other case.

COMPOUND	CLASS LABEL
CCOC(=O)c1ccc(Cc2ccc(O)cc2)cn1 [Ethyl 5-(4-hydroxybenzyl)-picolinate, ethyl 5-(4-hydroxybenzyl)picolinate]	Y

Threshold query (pIC50 >= 7) on O=C(O)c1ccc(Cc2ccc(O)c(O)c2)cn1 [5-(3,4-Dihydroxybenzyl)-picolinic Acid, 5-(3,4-dihydroxybenzyl)picolinic acid]
Y

Quick check: does O=C(O)c1ccccn1 [Picolinic Acid] have pIC50 greater than or equal to 7?
N

Is the recorded value of pIC50 equal to or greater than 7 for this compound? COC(=O)c1ccc(Cc2ccc(O)cc2)cn1 [Methyl 5-(4-hydroxybenzyl)-picolinate, methyl 5-(4-hydroxybenzyl)-picolinate]
Y

Check the entry Nc1ccc(Cc2ccc(C(=O)O)nc2)cc1 [5-(4-Aminobenzyl)-picolinic Acid] : does pIC50 equal or exceed 7?
N
